Value source: patent US8022206B2

Documented IC50 across a set of compounds
Target: RON (human) (Homo sapiens, UniProt Q04912)
Sequence (Q04912 25-1400): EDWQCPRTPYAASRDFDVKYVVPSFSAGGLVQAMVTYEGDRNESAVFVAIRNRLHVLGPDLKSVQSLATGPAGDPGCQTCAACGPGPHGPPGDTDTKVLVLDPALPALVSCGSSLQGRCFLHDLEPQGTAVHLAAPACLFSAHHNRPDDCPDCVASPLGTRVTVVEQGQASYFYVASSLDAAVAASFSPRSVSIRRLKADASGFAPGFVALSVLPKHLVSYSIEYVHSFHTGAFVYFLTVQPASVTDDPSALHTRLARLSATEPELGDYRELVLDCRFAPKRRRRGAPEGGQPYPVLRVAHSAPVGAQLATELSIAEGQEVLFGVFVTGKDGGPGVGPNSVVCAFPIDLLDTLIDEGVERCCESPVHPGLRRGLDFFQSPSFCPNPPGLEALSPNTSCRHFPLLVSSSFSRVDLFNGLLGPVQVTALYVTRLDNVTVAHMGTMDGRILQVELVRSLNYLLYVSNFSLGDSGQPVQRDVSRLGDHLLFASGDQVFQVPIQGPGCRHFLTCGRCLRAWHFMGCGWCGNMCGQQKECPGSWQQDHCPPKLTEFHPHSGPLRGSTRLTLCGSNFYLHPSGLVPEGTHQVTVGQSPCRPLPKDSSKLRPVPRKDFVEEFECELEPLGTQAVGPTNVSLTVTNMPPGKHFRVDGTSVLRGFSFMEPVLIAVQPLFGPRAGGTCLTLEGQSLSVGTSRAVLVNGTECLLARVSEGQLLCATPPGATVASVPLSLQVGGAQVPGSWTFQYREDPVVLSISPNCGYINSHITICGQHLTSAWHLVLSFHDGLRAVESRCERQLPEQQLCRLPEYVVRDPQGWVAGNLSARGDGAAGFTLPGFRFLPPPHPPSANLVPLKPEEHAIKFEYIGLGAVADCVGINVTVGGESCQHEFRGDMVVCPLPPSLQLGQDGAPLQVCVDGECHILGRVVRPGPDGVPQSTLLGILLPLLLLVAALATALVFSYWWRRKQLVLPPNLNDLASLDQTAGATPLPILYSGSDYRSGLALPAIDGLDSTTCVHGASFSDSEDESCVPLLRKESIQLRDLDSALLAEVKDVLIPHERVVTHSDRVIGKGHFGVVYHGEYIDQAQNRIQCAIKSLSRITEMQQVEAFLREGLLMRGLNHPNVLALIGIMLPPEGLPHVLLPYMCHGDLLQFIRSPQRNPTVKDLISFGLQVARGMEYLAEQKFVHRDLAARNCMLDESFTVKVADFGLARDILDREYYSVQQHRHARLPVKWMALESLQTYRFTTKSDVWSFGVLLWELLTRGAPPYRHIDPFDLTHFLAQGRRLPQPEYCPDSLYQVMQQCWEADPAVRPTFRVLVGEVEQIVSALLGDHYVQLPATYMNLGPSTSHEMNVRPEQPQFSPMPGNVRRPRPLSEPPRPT
Assay: RON (human) AlphaScreen kinase assay, Km of ATP
Assay type: biochemical
Settings: AlphaScreen, Km of ATP; read-out: RON biochemical IC50
Measurement name: IC50

compound="CC(Oc1c(N)ncc2c(-c3cnn(C4CCNCC4)c3)coc12)c1cccnc1 (stereo not shown)" assay_system="RON (human) (Homo sapiens, UniProt Q04912)" observed_result="500 to 5000 nM"
compound=C[C@@H](Oc1c(N)ncc2c(-c3cnn(C4CCNCC4)c3)coc12)c1nnc2ccc(-c3ccccc3)nn12 assay_system="RON (human) (Homo sapiens, UniProt Q04912)" observed_result="500 to 5000 nM"
compound=C[C@@H](Oc1c(N)ncc2c(-c3csc(CN4CCN(C)CC4)c3)coc12)c1c(Cl)ccc(F)c1Cl assay_system="RON (human) (Homo sapiens, UniProt Q04912)" observed_result="< 500 nM"
compound=C[C@@H](Oc1c(N)ncc2c(-c3ccc(C(=O)O)s3)coc12)c1c(Cl)ccc(F)c1Cl assay_system="RON (human) (Homo sapiens, UniProt Q04912)" observed_result="500 to 5000 nM"
compound=C[C@@H](Oc1c(N)ncc2c(-c3cnn([C@H]4CCNC4)c3)coc12)c1c(Cl)ccc(F)c1Cl assay_system="RON (human) (Homo sapiens, UniProt Q04912)" observed_result="< 500 nM"
compound="CC(Oc1c(N)ncc2c(-c3cnn(C4CCNCC4)c3)coc12)c1c(Cl)c(F)cc(OCCN(C)C)c1Cl (stereo not shown)" assay_system="RON (human) (Homo sapiens, UniProt Q04912)" observed_result="< 500 nM"
compound="C=CCC(Oc1c(N)ncc2c(-c3cnn(C4CCNCC4)c3)coc12)c1c(Cl)ccc(F)c1Cl (stereo not shown)" assay_system="RON (human) (Homo sapiens, UniProt Q04912)" observed_result="< 500 nM"
compound="CC(Oc1c(N)ncc2c(-c3cnn(C4CCNCC4)c3)coc12)c1ccc(Cl)cc1F (stereo not shown)" assay_system="RON (human) (Homo sapiens, UniProt Q04912)" observed_result="500 to 5000 nM"
compound=C[C@@H](Oc1c(N)ncc2c(C3=CCN(C)CC3)coc12)c1c(Cl)ccc(F)c1Cl assay_system="RON (human) (Homo sapiens, UniProt Q04912)" observed_result="< 500 nM"
compound="CC(Oc1c(N)ncc2c(C3=CCN(C(N)=O)CC3)coc12)c1c(Cl)ccc(F)c1Cl (stereo not shown)" assay_system="RON (human) (Homo sapiens, UniProt Q04912)" observed_result="500 to 5000 nM"
compound=CCNC(=O)c1ccc(-c2coc3c(O[C@H](C)c4c(Cl)ccc(F)c4Cl)c(N)ncc23)s1 assay_system="RON (human) (Homo sapiens, UniProt Q04912)" observed_result="500 to 5000 nM"
compound=Cn1cc(-c2ccc3nnc(COc4c(N)ncc5ccoc45)n3n2)cn1 assay_system="RON (human) (Homo sapiens, UniProt Q04912)" observed_result="5000 to 20000 nM"
compound=C[C@@H](Oc1c(N)ncc2c(-c3cncc(C(=O)NC(C)(C)C)c3)coc12)c1c(Cl)ccc(F)c1Cl assay_system="RON (human) (Homo sapiens, UniProt Q04912)" observed_result="5000 to 20000 nM"
compound="CC(Oc1c(N)ncc2c(-c3cnn(C4CCNCC4)c3)coc12)c1ccc(Cl)cc1Cl (stereo not shown)" assay_system="RON (human) (Homo sapiens, UniProt Q04912)" observed_result="500 to 5000 nM"
compound=C[C@@H](Oc1c(N)ncc2c(-c3cnn(C4CCNCC4)c3)c(C#N)oc12)c1c(Cl)ccc(F)c1Cl assay_system="RON (human) (Homo sapiens, UniProt Q04912)" observed_result="500 to 5000 nM"
compound="CC(Oc1c(N)ncc2c(-c3cnn(C4CCNCC4)c3)coc12)c1cc(F)cc(F)c1 (stereo not shown)" assay_system="RON (human) (Homo sapiens, UniProt Q04912)" observed_result="500 to 5000 nM"

----------
Biological target: MET (human) (Homo sapiens, UniProt P08581)
Sequence (P08581 25-1390): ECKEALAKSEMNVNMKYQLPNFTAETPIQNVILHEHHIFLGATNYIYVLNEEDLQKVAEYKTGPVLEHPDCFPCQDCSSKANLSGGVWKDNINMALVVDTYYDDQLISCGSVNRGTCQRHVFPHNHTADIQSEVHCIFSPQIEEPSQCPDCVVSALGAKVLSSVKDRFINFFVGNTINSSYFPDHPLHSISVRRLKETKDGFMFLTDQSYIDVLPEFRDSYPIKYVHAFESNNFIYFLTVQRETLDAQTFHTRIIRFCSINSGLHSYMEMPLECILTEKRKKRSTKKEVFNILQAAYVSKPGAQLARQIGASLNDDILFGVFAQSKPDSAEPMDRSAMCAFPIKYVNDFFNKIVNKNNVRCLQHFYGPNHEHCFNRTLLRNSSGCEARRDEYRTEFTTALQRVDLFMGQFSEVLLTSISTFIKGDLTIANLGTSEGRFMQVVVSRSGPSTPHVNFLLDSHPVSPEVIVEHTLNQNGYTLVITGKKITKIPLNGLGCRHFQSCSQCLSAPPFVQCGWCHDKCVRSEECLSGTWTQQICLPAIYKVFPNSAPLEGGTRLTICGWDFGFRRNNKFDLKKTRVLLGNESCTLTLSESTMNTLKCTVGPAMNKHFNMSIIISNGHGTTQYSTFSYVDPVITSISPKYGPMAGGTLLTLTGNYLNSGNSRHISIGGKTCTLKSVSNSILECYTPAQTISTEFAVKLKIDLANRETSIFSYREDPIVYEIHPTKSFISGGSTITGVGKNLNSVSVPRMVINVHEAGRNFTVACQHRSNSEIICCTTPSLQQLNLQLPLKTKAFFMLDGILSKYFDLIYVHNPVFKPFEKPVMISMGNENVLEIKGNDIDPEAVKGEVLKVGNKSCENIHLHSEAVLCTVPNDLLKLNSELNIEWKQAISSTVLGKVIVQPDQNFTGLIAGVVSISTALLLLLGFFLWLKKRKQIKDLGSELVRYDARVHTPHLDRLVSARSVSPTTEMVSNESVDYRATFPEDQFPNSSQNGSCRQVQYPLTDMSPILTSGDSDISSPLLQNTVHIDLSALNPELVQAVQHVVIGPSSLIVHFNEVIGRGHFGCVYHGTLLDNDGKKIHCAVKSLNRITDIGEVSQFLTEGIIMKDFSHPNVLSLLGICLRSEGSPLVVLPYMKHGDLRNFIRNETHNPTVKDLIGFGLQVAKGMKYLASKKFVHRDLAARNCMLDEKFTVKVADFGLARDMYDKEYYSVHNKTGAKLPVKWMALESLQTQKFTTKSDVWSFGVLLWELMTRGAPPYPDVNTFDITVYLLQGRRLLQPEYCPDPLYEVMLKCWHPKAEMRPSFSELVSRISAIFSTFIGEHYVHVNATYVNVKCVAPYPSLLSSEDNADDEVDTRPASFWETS
Assay: MET (human) AlphaScreen kinase assay, Km of ATP
Format: biochemical
Conditions: AlphaScreen, Km of ATP; read-out: Met biochemical IC50
Documented IC50 across a set of compounds
Measurement name: IC50

smiles_record=C[C@@H](Oc1c(N)ncc2c(C3=CCN(CC4CCCCC4)CC3)coc12)c1c(Cl)ccc(F)c1Cl measurement_name=IC50 observed_result="< 500 nM"
smiles_record=C[C@@H](Oc1c(N)ncc2c(-c3nccs3)coc12)c1c(Cl)ccc(F)c1Cl measurement_name=IC50 observed_result="500 to 5000 nM"
smiles_record=C[C@@H](Oc1c(N)ncc2c(-c3ccc(C(=O)O)cc3)coc12)c1c(Cl)ccc(F)c1Cl measurement_name=IC50 observed_result="500 to 5000 nM"
smiles_record=C[C@@H](Oc1c(N)ncc2c(C3=CCN(C(C)(C)C)CC3)coc12)c1c(Cl)ccc(F)c1Cl measurement_name=IC50 observed_result="< 500 nM"

----------
Documented pIC50 across a set of molecules
Molecular target: MET (human) (Homo sapiens, UniProt P08581)
Assay: MET (human) AlphaScreen kinase assay, Km of ATP
Format: biochemical
Conditions: AlphaScreen, Km of ATP; read-out: Met biochemical IC50
pIC50: −log10 of the molar value.
Measurement name: pIC50

molecule="C[C@@H](Oc1c(N)ncc2c(C3=CCCC(N)C3)coc12)c1c(Cl)ccc(F)c1Cl (some centres unmarked)" observed_result="5.30 to 6.30"
molecule=C[C@@H](Oc1c(N)ncc2c(C3=CCN(C(=O)[C@H](O)C(F)(F)F)CC3)coc12)c1c(Cl)ccc(F)c1Cl observed_result="5.30 to 6.30"
molecule=Cn1c(Cc2ccccc2)ncc(-c2ccc(COc3c(N)ncc4c(-c5cnn(C6CCNCC6)c5)coc34)c(F)c2)c1=O observed_result="> 6.30"
molecule=C[C@@H](Oc1c(N)ncc2c(C3=CCN(C(=O)[C@H]4CCCN4)CC3)coc12)c1c(Cl)ccc(F)c1Cl observed_result="> 6.30"
molecule=COc1ccc(-c2coc3c(O[C@H](C)c4c(Cl)ccc(F)c4Cl)c(N)ncc23)cc1 observed_result="5.30 to 6.30"

----------
Documented pIC50 across a set of compounds
Molecular target: MET (human) (Homo sapiens, UniProt P08581)
Assay: MET (human) AlphaScreen kinase assay, Km of ATP
Type: biochemical
Settings: AlphaScreen, Km of ATP; read-out: Met biochemical IC50
pIC50: −log10 of the molar value.
Measurement name: pIC50

compound=C[C@@H](Oc1c(N)ncc2c(CO)coc12)c1c(Cl)ccc(F)c1Cl assay_system="MET (human) (Homo sapiens, UniProt P08581)" measurement_name=pIC50 observed_result="5.30 to 6.30"
compound=CC(C)CN1CC=C(c2coc3c(O[C@H](C)c4c(Cl)ccc(F)c4Cl)c(N)ncc23)CC1 assay_system="MET (human) (Homo sapiens, UniProt P08581)" measurement_name=pIC50 observed_result="> 6.30"
compound="C[C@@H](Oc1c(N)ncc2c(C3=CCN(C(=O)C(O)C(F)(F)F)CC3)coc12)c1c(Cl)ccc(F)c1Cl (stereo partly drawn)" assay_system="MET (human) (Homo sapiens, UniProt P08581)" measurement_name=pIC50 observed_result="> 6.30"
compound=C[C@@H](Oc1c(N)ncc2c(-c3cccc(CN(C)C)c3)coc12)c1c(Cl)ccc(F)c1Cl assay_system="MET (human) (Homo sapiens, UniProt P08581)" measurement_name=pIC50 observed_result="> 6.30"
compound="CC(Oc1c(N)ncc2c(-c3cnn(C4CCNCC4)c3)coc12)c1ncc(C(F)(F)F)cc1Cl (stereo not drawn)" assay_system="MET (human) (Homo sapiens, UniProt P08581)" measurement_name=pIC50 observed_result="5.30 to 6.30"
compound="CC(Oc1c(N)ncc2c(-c3cnn(C4CCNCC4)c3)coc12)c1c(F)cccc1Cl (stereo not drawn)" assay_system="MET (human) (Homo sapiens, UniProt P08581)" measurement_name=pIC50 observed_result="> 6.30"
compound=CCCS(=O)(=O)Nc1cccc(-c2coc3c(O[C@H](C)c4c(Cl)ccc(F)c4Cl)c(N)ncc23)c1 assay_system="MET (human) (Homo sapiens, UniProt P08581)" measurement_name=pIC50 observed_result="5.30 to 6.30"
compound=C[C@@H](Oc1c(N)ncc2c(C(=O)NCCCN(C)C)coc12)c1c(Cl)ccc(F)c1Cl assay_system="MET (human) (Homo sapiens, UniProt P08581)" measurement_name=pIC50 observed_result="> 6.30"
compound="CC(Oc1c(N)ncc2c(-c3cnn(C4CCNCC4)c3)coc12)c1c(Cl)c(F)cc(OCCN(C)C)c1Cl (stereo not drawn)" assay_system="MET (human) (Homo sapiens, UniProt P08581)" measurement_name=pIC50 observed_result="> 6.30"
compound="CC(Oc1c(N)ncc2c(-c3cnn(C4CCNCC4)c3)coc12)c1c(Cl)cc(Br)cc1Cl (stereo not drawn)" assay_system="MET (human) (Homo sapiens, UniProt P08581)" measurement_name=pIC50 observed_result="> 6.30"
compound=C[C@@H](Oc1c(N)ncc2c(C(=O)NC3CCNCC3)coc12)c1c(Cl)ccc(F)c1Cl assay_system="MET (human) (Homo sapiens, UniProt P08581)" measurement_name=pIC50 observed_result="> 6.30"
compound="CC(Oc1c(N)ncc2c(-c3cnn(C4CCNCC4)c3)coc12)c1cccc(C(F)(F)F)c1 (stereo not drawn)" assay_system="MET (human) (Homo sapiens, UniProt P08581)" measurement_name=pIC50 observed_result="> 6.30"
compound=C[C@@H](Oc1c(N)ncc2c(-c3csc(CN4CCC(O)CC4)c3)coc12)c1c(Cl)ccc(F)c1Cl assay_system="MET (human) (Homo sapiens, UniProt P08581)" measurement_name=pIC50 observed_result="> 6.30"
compound=C[C@@H](Oc1c(N)ncc2c(C3=CCOCC3)coc12)c1c(Cl)ccc(F)c1Cl assay_system="MET (human) (Homo sapiens, UniProt P08581)" measurement_name=pIC50 observed_result="> 6.30"
compound=C[C@@H](Oc1c(N)ncc2c(-c3cc(C(=O)N4CCN(C)CC4)cs3)coc12)c1c(Cl)ccc(F)c1Cl assay_system="MET (human) (Homo sapiens, UniProt P08581)" measurement_name=pIC50 observed_result="5.30 to 6.30"
